# Tested target: Platelet-activating factor receptor (Oryctolagus cuniculus)
# Test: Antagonistic activity was tested against Platelet-Activating Factor-induced aggregation of rabbit washed platelets.
Readout kind: IC50 (nM)
// units = nM; emit number, no label

What the record says about `Cc1nc2cnccc2n1-c1ccc(-c2nnc(-c3ccccc3)o2)cc1` : IC50 is 44

The reported IC50 of the compound `Cc1nc2cnccc2n1-c1ccc(C2=Nc3ccccc3N(C)C(=O)C2)cc1` was 4.9

Per the record, Cc1nc2cnccc2n1-c1ccc(C2=NC3CCCCC3NC(=O)C2)cc1 (centres undefined) has IC50 of 200

Consider the additional compound presented here.
// field: IC50; key: `Cc1nc2cnccc2n1-c1ccccc1` ; value = 840
